Exercise: state measured pIC50 for each of the compounds provided.
biological target: Gamma-secretase; experiment: Inhibition of gamma-secretase in human H4 cells expressing human wild type […] cDNA assessed as reduction in amyloid beta peptides incubated for 16 to 18 hrs by ELISA method; format: cell-based
By convention, pIC50 is the negative base-10 log of a molar concentration.

Exercise: Value lookup for pIC50; key = `COc1cc(N2CCC(Nc3ncc4c(n3)N(c3ccc(F)cc3C(F)(F)F)CCO4)CC2)ccn1`
Key: 7.92

Exercise: What do we get for `COc1cc(N2CCC(Nc3ncc4c(n3)N(c3ccccc3Cl)CCO4)CC2)ccn1` ?
Key: 7.26

Exercise: What do we get for `COc1cc(N2CCC(Nc3ncc4c(n3)N(c3ccccc3)CCO4)CC2)ccn1` ?
Key: 7.60

Exercise: What do we get for `COc1cc(N2CCC(Nc3ncc4c(n3)N(c3ccc(F)cc3F)CCO4)CC2)ccn1` ?
Key: 7.14

Exercise: What do we get for `Cc1ccccc1N1CCOc2cnc(NC3CCN(c4ccnc(Cl)c4)CC3)nc21` ?
Key: 7.05

Exercise: What do we get for `COc1cc(N2CCC(Nc3ncc4c(n3)N(c3ccccc3C)CCO4)CC2)ccn1` ?
Key: 7.23

Exercise: What do we get for `COc1cc(N2CCC(Nc3ncc4c(n3)N(c3ccc(F)cc3)CCO4)CC2)ccn1` ?
Key: 7.52
